Source listed as PubChem BioAssay AID540269.

# experimental-system: glucose-6-phosphate dehydrogenase-6-phosphogluconolactonase (Plasmodium falciparum 3D7)
# measurement-protocol: PfG6PD enzyme inhibitors, kinetic NADPH readout, dose response, orthogonal assay, biochemical, kinetic NADPH detection (AID 540269); call rule not given here
# details: purified PfG6PD-6PGL
Hello, when you answer, please use one of the following outcomes: YES = active, NO = inactive

Problem: // outcome(item) with item = "Cc1cc(C)c2sc(NC(=O)C3=COCCO3)nc2c1"
Result: YES

* * *

# experimental-system: glucose-6-phosphate dehydrogenase-6-phosphogluconolactonase (Plasmodium falciparum 3D7)
# measurement-protocol: PfG6PD enzyme inhibitors, kinetic NADPH readout, dose response, orthogonal assay, biochemical, kinetic NADPH detection (AID 540269)
# details: purified PfG6PD-6PGL
The source made the active and inactive calls. The rule behind the calls is not given here.
Hello, when you answer, please use one of the following outcomes: active, inactive

These solved cases illustrate the format of a correct answer.
>>> qualitative_label("CCOc1ccccc1NS(=O)(=O)c1c(C)noc1C")
"inactive"
>>> qualitative_label("O=c1c2ccccc2[se]n1-c1ccccc1")
"active"
>>> qualitative_label("O=C(Nc1nnc(S(=O)(=O)N2CCOCC2)s1)c1cccc(Br)c1")
"active"
>>> qualitative_label("Cc1cc(=O)[nH]c(N/N=C/c2c(C)nn(-c3ccccc3)c2Cl)n1")
"active"
>>> qualitative_label("O=C1CCC[C@@H]2[C@@H](Cc3ccccc3)[C@H](N3CCN(c4ccccc4)CC3)C[C@@H]3CCN1[C@@H]32")
"inactive"
>>> qualitative_label("Cc1ccccc1N/C(SCc1cccc(Br)c1)=C(/C#N)C(N)=O")
"inactive"

Problem: // outcome(item) with item = "O=c1[nH]c2ccccc2n2c(-c3ccccc3)nnc12"
Result: active

Problem: // outcome(item) with item = "Cc1nc2ccccn2c1-c1ccnn1S(=O)(=O)c1ccc(F)cc1"
Result: inactive
